subject of test: PDE7A (Homo sapiens, UniProt Q13946)
Construct: cell lysate containing full length PDE7A, PDE7B and PDE1C enzyme; made in house; host or cells: cell lysate
Sequence (Q13946 whole entry): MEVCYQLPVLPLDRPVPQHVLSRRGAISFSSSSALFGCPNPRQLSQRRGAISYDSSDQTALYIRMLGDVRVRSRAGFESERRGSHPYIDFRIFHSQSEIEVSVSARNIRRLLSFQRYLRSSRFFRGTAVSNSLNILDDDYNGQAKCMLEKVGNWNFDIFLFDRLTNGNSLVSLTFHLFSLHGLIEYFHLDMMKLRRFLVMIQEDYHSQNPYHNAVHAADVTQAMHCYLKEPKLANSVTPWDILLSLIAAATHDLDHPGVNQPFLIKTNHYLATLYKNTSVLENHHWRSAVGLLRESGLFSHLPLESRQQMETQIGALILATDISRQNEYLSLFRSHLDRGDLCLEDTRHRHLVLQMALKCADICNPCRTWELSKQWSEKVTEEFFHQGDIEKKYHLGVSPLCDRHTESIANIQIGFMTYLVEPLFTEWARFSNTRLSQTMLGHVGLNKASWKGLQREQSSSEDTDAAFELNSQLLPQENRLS
assay protocol: PDE7A [3H]-cAMP scintillation proximity assay (SPA) enzyme inhibition
Assay type: biochemical
experimental setup: full length PDE7A in cell lysate; ~25 nM cAMP; Ki from IC50 by Cheng-Prussof equation
measured attribute: Ki

>>> data_value("O=C1Nc2c(Cl)ccc(Oc3ccccc3-c3nnn[nH]3)c2C2(CCCCC2)N1 [Example 17]")
"< 0.15 nM"
>>> data_value("O=C1Nc2c(Cl)ccc(Oc3ccc(F)cc3-c3nn[nH]n3)c2C2(CCCCC2)N1 [Example 11]")
"< 0.2 nM"
>>> data_value("O=C(O)Cc1cccc(F)c1Oc1ccc(Cl)c2c1C1(CCCCC1)NC(=O)N2 [Example 22]")
"< 0.05 nM"
